# Assayed Target: Bcl-2 protein (Recombinant Human Bcl-2 Protein) (Homo sapiens, UniProt P10415)
# Construct: purchased Novus Biologicals NBP2-34889
# Sequence (P10415 whole entry): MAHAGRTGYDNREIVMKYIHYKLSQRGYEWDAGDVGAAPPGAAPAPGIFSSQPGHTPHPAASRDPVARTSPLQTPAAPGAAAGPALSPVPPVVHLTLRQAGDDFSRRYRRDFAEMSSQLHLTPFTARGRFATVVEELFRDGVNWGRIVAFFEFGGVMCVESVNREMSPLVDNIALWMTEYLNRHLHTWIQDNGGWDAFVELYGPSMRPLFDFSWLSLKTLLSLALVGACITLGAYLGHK
# Assay Notes: AS-MS evaluation of binding of the Example 4 mixture library (1200 compounds/well) to Bcl-2, ASMS ratio (%)
# Particulars: AS-MS, Example 4 mixture library, Bcl-2, replicate n = 2
Experimental Readout: ASMS ratio (%) n = 2
State the answer as a number, implicitly in %.

structure_notation=CCOc1cccc(-c2cc(CN3CCN(c4ccc(C(=O)NS(=O)(=O)c5ccc(NCCSc6ccccc6)c(C(F)(F)F)c5)cc4)CC3)cc(OC(C)C)c2)c1 readout_units=% endpoint_value=−5.1

Problem: Look up ASMS ratio (%) n = 2 for this molecule: CCOc1cncc(C#Cc2ccccc2C(=O)N2CCN(c3ccc(C(=O)NS(=O)(=O)c4ccc(NCCSc5ccccc5)c(C(F)(F)F)c4)nn3)CC2)c1
Result: 19.5

Problem: What do we get for CCOc1cncc(-c2csc(C(=O)N3CCN(c4ccc(C(=O)NS(=O)(=O)CCC(F)(F)F)cc4)CC3)c2)c1 ?
Result: 0.0

Problem: What do we get for CCOc1cncc(C#Cc2cc(C(=O)N3CCN(c4ccc(C(=O)NS(=O)(=O)c5ccc(NCCSc6ccccc6)c(C(F)(F)F)c5)cc4)CC3)cc(C(F)(F)F)c2)c1 ?
Result: 6.0

Problem: What do we get for CCOc1cncc(C#Cc2ccccc2C(=O)N2CCN(c3ccc(C(=O)NS(=O)(=O)c4ccc(NCCSc5ccccc5)c(C(F)(F)F)c4)cc3)CC2)c1 ?
Result: 4.8

Problem: What do we get for CCOc1cncc(-c2csc(C(=O)N3CCN(c4ccc(C(=O)NS(=O)(=O)c5ccc(NCCSc6ccccc6)c(C(F)(F)F)c5)cc4)CC3)c2)c1 ?
Result: −1.2

---

# Assayed Target: Human Bcl-2 protein (Homo sapiens)
# Construct: purchased Novus Biologicals
# Sequence (P10415 whole entry): as above
# Assay Notes: Evaluation of binding of compound to Bcl-2 by surface plasmon resonance (SPR)-2, Example 13
# Particulars: Biacore T200, biotinylated Bcl-2 immobilized on Sensor Chip SA, 15° C., read-out: Equilibrium dissociation constant KD
Experimental Readout: pKd
pKd is a log-scale quantity: -log10 of the concentration expressed in molar.

Take a look at these entries with their results.
compound="CC(C(=O)Nc1ccccc1)c1cc(O)cc(N2CCN(c3ccc(C(=O)NS(=O)(=O)c4ccc(NCCSc5ccccc5)c([N+](=O)[O-])c4)cc3)CC2)c1 (centres unmarked)" experimental_readout=pKd endpoint_value=5.10
compound="CCOc1cc(C(C)C(=O)Nc2nc3ccccc3s2)cc(N2CCN(c3ccc(C(=O)NS(=O)(=O)c4ccc(N[C@H](CCN5CCOCC5)CSc5ccccc5)c([N+](=O)[O-])c4)cc3)CC2)c1 (some centres unmarked)" experimental_readout=pKd endpoint_value=6.15
compound="CC(C(=O)Nc1ccc(C(F)(F)F)cc1)c1cc(O)cc(N2CCN(c3ccc(C(=O)NS(=O)(=O)c4ccc(N[C@H](CCN5CCOCC5)CSc5ccccc5)c([N+](=O)[O-])c4)cc3)CC2)c1 (some centres unmarked)" experimental_readout=pKd endpoint_value=5.60
compound="CC(C(=O)Nc1nc2ccccc2s1)c1cc(O)cc(N2CCN(c3ccc(C(=O)NS(=O)(=O)c4ccc(N[C@H](CCN5CCOCC5)CSc5ccccc5)c([N+](=O)[O-])c4)cc3)CC2)c1 (some centres unmarked)" experimental_readout=pKd endpoint_value=6.79
compound="CCOc1cc(C(C)C(=O)Nc2ccc(F)cc2)cc(N2CCN(c3ccc(C(=O)NS(=O)(=O)c4ccc(N[C@H](CCN5CCOCC5)CSc5ccccc5)c([N+](=O)[O-])c4)cc3)CC2)c1 (some centres unmarked)" experimental_readout=pKd endpoint_value=5.97

Problem: Look up pKd for this compound: CC(C(=O)Nc1ccc(F)cc1)c1cc(O)cc(N2CCN(c3ccc(C(=O)NS(=O)(=O)c4ccc(NCCSc5ccccc5)c([N+](=O)[O-])c4)cc3)CC2)c1 (centres unmarked)
Result: 4.82

Problem: What do we get for CCOc1cc(C(C)C(=O)Nc2ccccc2)cc(N2CCN(c3ccc(C(=O)NS(=O)(=O)c4ccc(N[C@H](CCN5CCOCC5)CSc5ccccc5)c([N+](=O)[O-])c4)cc3)CC2)c1 (some centres unmarked) ?
Result: 6.07

Problem: What do we get for CC(C(=O)Nc1ccccc1)c1cc(O)cc(N2CCN(c3ccc(C(=O)NS(=O)(=O)c4ccc(N[C@H](CCN5CCOCC5)CSc5ccccc5)c([N+](=O)[O-])c4)cc3)CC2)c1 (some centres unmarked) ?
Result: 6.24
